biological target: recombinant human TFPI (tissue factor pathway inhibitor) (human, UniProt P10646 29-304); experiment: cell-based or functional assay
readout.kind: % of Normalized, TF/FVIIa/FX complex assay, Ab 3.13 nM (%)
Answers are plain numbers, in %.

% of Normalized, TF/FVIIa/FX complex assay, Ab 3.13 nM measured on clone 1023 (antibody, V domains shown, scFv on yeast at selection; human IgG4/kappa IgG as purified) VH: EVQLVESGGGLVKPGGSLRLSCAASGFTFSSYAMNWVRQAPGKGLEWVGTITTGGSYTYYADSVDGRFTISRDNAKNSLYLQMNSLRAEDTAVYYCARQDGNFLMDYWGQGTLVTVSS VL: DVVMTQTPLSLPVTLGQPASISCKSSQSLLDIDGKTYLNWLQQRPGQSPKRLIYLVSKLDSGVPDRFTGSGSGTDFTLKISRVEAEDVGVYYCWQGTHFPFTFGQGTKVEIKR = 17.5

Values were extracted from patent US20180030151A1.
